- measured.target: Serine/threonine-protein kinase B-raf (Mus musculus, UniProt P28028, V600E)
- Sequence (P28028 whole entry, looked up, stated change not applied): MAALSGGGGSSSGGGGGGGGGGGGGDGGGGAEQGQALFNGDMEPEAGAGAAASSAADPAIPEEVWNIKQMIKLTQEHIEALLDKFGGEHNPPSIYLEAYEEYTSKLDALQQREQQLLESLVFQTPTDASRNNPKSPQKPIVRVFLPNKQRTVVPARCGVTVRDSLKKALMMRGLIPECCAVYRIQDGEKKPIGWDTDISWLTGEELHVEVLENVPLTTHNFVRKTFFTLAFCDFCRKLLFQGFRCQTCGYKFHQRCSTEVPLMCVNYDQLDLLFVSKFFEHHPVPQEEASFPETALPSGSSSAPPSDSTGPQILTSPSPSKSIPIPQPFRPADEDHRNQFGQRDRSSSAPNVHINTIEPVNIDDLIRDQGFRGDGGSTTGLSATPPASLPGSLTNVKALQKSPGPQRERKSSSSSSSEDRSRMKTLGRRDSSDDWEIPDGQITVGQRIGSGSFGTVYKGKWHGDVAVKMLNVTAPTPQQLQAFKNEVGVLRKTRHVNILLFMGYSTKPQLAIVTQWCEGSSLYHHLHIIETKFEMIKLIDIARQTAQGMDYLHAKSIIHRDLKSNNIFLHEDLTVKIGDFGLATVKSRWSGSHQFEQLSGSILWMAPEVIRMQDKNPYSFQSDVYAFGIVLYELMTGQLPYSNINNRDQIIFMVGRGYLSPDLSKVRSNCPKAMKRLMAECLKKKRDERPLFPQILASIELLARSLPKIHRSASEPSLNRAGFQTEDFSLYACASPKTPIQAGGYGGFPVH
- test.method.notes: Inhibition of full-length GST-tagged mouse BRAF V600E mutant using recombinant human full length N-terminal His-tagged MEK1 as substrate preincubated for 1 hr followed by substrate addition measured after 25 mins by Nu-page gel-based phosphor screen analysis
pIC50: −log10 of the molar value.
result.type: pIC50

A selection of reference data follows.
COc1ccc(CC(=O)Nc2cnn(-c3ccccc3)c2)cc1OC :: 6.14
COc1ccc(-n2cc(NC(=O)Cn3ccc(-c4cccc(Cl)c4)n3)cn2)cc1 :: 7.00
COc1ccc(CC(=O)Nc2cnn(Cc3ccccc3)c2)cc1OC :: 6.30
COc1ccc(CC(=O)Nc2cnn(-c3ccc(C)cc3)c2)cc1OC :: 6.35
COc1ccc(CC(=O)Nc2cnn(C)c2)cc1OC :: 5.35

a = O=C(Cn1ccc(-c2ccccn2)n1)Nc1cnn(-c2ccccc2)c1
b = CCn1cc(NC(=O)Cn2ccc(-c3ccccn3)n2)cn1
Ask: Recorded pIC50 values differ for a and b ; which one is higher? Bench note: the answer is the label of the chosen record.
Reply: a
(a: 6.28, b: 5.41)

a = CCn1cc(NC(=O)Cn2ccc(-c3cccc(Cl)c3)n2)cn1
b = CCn1cc(NC(=O)Cc2ccc(OC)c(OC)c2)cn1
Ask: Compare a and b by numeric pIC50 and name the larger one. Use the label to indicate which entry you chose.
Reply: a
(a: 5.92, b: 5.44)
